# Experimental system: T1, CRF2R
# T1 sequence (Q13324 whole entry, species assumed, looked up): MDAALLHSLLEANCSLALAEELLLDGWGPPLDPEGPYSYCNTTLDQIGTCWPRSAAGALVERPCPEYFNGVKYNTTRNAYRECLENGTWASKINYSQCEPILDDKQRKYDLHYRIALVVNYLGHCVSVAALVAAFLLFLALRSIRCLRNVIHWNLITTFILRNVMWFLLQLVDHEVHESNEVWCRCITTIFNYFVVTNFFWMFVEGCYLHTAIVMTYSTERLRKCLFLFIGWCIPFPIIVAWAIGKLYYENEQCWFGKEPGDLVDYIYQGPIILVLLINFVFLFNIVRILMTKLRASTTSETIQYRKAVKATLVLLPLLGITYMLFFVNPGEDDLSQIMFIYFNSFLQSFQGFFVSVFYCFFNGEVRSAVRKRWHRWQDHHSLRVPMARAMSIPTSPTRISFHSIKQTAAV
# Assay overview: cell-based or functional assay
Ends that are not written are not given here.
Labelling: CRF2R Emax reported below 70% becomes criterion met; at or above becomes criterion not met.

Below, 5 binders whose answers are already recorded.
{"Binder": "IVLSLDVPIGLLQILLEQERQRAAREQATTNARILARV-NH2 [SEQ ID NO 111]", "Discrete label": "criterion not met"}
{"Binder": "IVLSLDVPIGLLQILLEQARQEAAREQATTNARILARV-NH2 [SEQ ID NO 123]", "Discrete label": "criterion not met"}
{"Binder": "ZGPPISIDLPFQLLRKMIEIEKQEKEKQQATNNRLLLATV (C-terminal amide) [SEQ ID NO 12]", "Discrete label": "criterion not met"}
{"Binder": "ZGPPISIDLPQLLLRKMIEIEKQEKEKQQAANNRLLLDTI (C-terminal amide) [SEQ ID NO 196]", "Discrete label": "criterion not met"}
{"Binder": "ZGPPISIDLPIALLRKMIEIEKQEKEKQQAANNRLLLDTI (C-terminal amide) [SEQ ID NO 47]", "Discrete label": "criterion met"}

Exercise: Lab note: CRF2R Emax threshold 70%. Does this binder come in strictly under it? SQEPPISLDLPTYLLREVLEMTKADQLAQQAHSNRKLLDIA-NH2 [SEQ ID NO 106]
Solution: criterion met

Exercise: Lab note: CRF2R Emax threshold 70%. Does this binder come in strictly under it? IVLSLDVPIGLLQILLEQARARAAREQATTQARILARV-NH2 [SEQ ID NO 9]
Solution: criterion met

Exercise: Lab note: CRF2R Emax threshold 70%. Does this binder come in strictly under it? IVLSLDVPIGLLQILLEQTKADAAREQATTNARILARV-NH2 [SEQ ID NO 108]
Solution: criterion not met

Exercise: Lab note: CRF2R Emax threshold 70%. Does this binder come in strictly under it? ZGPPISIDLPLELLRKMIEIEKQEKEKQQAANNRLLLDTI (C-terminal amide) [SEQ ID NO 82]
Solution: criterion not met

Exercise: Lab note: CRF2R Emax threshold 70%. Does this binder come in strictly under it? SQEPPISLDLPLHLLREVLEMTKADQLAQQAHSNRKLLDIA-NH2 [SEQ ID NO 102]
Solution: criterion met

Exercise: Lab note: CRF2R Emax threshold 70%. Does this binder come in strictly under it? ZGPPISIDLPLLLLRKMIEIEKQEKEKQQAANNRLLLDTI (C-terminal amide) [SEQ ID NO 188]
Solution: criterion not met

Exercise: Lab note: CRF2R Emax threshold 70%. Does this binder come in strictly under it? ZGPPISIDLPHWLLRKMIEIEKQEKEKQQAANNRLLLDTI (C-terminal amide) [SEQ ID NO 186]
Solution: criterion not met
